# Species: Rattus norvegicus
# ASSAY REMARKS: Open TG-GATES - Regimen: Single
# Type: toxicity, organism-based, Sprague-Dawley
# Parameters: regimen Single, gender Male, age 6 weeks
# TEST CONDITIONS: in vivo, po, 0 mg/kg, 6 h, tissue Plasma, route gavage, dose level Control
Please go through the items and note down their TP.
Quick note: number first, unit second.

Here is how some compounds turned out for TP.
CN/C(=N/CCSCc1nc[nH]c1C)NC#N [CIMETIDINE] = 5.5 g/dL
Cc1nnc2n1-c1ccc(Cl)cc1C(c1ccccc1Cl)=NC2 [TRIAZOLAM] = 5.1 g/dL
O=C(OC[C@H]1O[C@@H](OC(=O)c2cc(O)c(O)c(OC(=O)c3cc(O)c(O)c(O)c3)c2)[C@H](OC(=O)c2cc(O)c(O)c(OC(=O)c3cc(O)c(O)c(O)c3)c2)[C@@H](OC(=O)c2cc(O)c(O)c(OC(=O)c3cc(O)c(O)c(O)c3)c2)[C@@H]1OC(=O)c1cc(O)c(O)c(OC(=O)c2cc(O)c(O)c(O)c2)c1)c1cc(O)c(O)c(OC(=O)c2cc(O)c(O)c(O)c2)c1 [TANNIC ACID] = 5.4 g/dL
Brc1ccccc1 [BROMOBENZENE] = 5.5 g/dL
CNC(=C[N+](=O)[O-])NCCSCc1ccc(CN(C)C)o1 [RANITIDINE] = 5.4 g/dL

Dear colleague, could you send me TP for each of the items below? Thanks.
1. CN1C(=O)CCS(=O)(=O)C1c1ccc(Cl)cc1 (centres undefined) [CHLORMEZANONE]
2. NC1=NC(=O)C(c2ccccc2)O1 (centres undefined) [PEMOLINE]
3. CC(C)NNC(=O)c1ccncc1 [IPRONIAZID]
4. CS(=O)(=O)O.Cc1ccc(NC(=O)c2ccc(CN3CCN(C)CC3)cc2)cc1Nc1nccc(-c2cccnc2)n1 [IMATINIB MESYLATE]
5. CCCc1cc(=O)[nH]c(=S)[nH]1 [PROPYLTHIOURACIL]

["5.7 g/dL", "5.3 g/dL", "5.3 g/dL", "5.5 g/dL", "5.4 g/dL"]

Lab note: each compound below needs its TP filled in.
1. CN(C)CCC(c1ccc(Cl)cc1)c1ccccn1 (centres undefined) [CHLORPHENIRAMINE]
2. COC(=O)C1=C(C)NC(C)=C(C(=O)OC)C1c1ccccc1[N+](=O)[O-] [NIFEDIPINE]
3. Nc1c2c(nc3ccccc13)CCCC2 [TACRINE]

["5.4 g/dL", "5.4 g/dL", "5.4 g/dL"]

For the compound CCOc1ccc(NC(C)=O)cc1 [PHENACETIN] , give its measured TP value.
5.4 g/dL
